molecular target: mutant G2019S LRRK2 (Homo sapiens (Human), UniProt Q5S007, G2019S); assay: LRRK2 Lantha Screen kinase assay, mutant enzyme; assay type: biochemical; details: geometric mean of 2-5 determinations unless otherwise indicated (a: >=6 determinations; b: single determination)
Sequence (Q5S007 970-2527 G2019S): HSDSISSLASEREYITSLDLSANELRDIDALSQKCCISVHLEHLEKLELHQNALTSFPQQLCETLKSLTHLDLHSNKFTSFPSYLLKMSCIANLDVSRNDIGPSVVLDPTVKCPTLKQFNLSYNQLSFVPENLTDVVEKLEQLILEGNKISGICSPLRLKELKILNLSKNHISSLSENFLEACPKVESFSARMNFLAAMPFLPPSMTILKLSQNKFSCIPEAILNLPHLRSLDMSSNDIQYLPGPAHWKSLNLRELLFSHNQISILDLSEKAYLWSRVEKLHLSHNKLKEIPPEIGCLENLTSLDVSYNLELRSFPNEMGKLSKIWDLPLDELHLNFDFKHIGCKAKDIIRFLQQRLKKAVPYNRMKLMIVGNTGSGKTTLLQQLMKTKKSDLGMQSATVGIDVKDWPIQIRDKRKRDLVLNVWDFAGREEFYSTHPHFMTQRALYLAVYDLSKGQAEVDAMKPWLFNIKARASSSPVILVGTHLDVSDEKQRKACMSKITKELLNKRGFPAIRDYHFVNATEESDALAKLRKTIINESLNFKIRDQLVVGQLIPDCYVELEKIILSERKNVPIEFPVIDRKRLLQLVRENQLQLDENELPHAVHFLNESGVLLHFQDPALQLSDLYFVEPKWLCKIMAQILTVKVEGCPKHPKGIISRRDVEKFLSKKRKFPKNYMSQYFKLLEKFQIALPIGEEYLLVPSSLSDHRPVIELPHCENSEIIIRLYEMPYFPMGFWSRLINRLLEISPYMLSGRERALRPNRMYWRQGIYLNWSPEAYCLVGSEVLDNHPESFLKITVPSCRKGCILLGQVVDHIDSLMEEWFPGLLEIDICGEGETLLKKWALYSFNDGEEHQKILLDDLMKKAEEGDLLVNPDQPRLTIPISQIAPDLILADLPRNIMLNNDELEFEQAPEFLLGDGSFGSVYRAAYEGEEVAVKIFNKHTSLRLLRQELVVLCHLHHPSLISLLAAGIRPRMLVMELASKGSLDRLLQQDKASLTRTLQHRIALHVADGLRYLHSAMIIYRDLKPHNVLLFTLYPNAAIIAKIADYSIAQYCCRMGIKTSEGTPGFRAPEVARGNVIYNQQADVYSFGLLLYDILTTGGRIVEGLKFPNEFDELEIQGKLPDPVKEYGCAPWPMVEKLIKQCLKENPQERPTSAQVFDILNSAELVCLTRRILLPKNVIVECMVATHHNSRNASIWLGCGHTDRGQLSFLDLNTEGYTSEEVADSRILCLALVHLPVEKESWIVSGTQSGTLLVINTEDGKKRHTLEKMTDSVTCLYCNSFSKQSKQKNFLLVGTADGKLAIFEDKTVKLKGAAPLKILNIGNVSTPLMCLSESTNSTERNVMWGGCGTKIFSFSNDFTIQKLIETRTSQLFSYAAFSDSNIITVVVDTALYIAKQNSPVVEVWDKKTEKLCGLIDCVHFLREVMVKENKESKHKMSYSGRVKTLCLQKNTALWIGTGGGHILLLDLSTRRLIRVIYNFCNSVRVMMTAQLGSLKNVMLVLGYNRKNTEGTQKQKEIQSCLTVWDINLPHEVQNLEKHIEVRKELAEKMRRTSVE
pIC50: −log10 of the molar value.
assayEndpoint: pIC50

* COc1ccc(Cl)cc1-c1c[nH]c2ncnc(N(C)C)c12 [Example 25] | 7.72
* C[C@H]1CN(c2ncnc3[nH]cc(-c4cccc(C#N)c4)c23)CCO1 [Example 6] | 7.43
* CN(C)c1ncnc2[nH]cc(-c3cccc(C#N)c3)c12 [Example 5] | 7.82
* NC(=O)C1CCCN(c2ncnc3[nH]cc(-c4ccccc4)c23)C1 (stereo not drawn) [Example 13] | 7.41
* C[C@@H]1C[C@H](C)CN(c2ncnc3[nH]cc(-c4cnn(C)c4)c23)C1 [Example 22] | 7.80
* CC1CCN(c2ncnc3[nH]cc(-c4cccc(C#N)c4)c23)C1 (single isomer, unassigned) [Example 71] | 6.99
* Cc1cccc(-c2c[nH]c3ncnc(N4CCOCC4)c23)c1 [Example 107] | 7.70
* Cc1ccc(Cl)c(-c2c[nH]c3ncnc(N4CCOCC4)c23)c1 [Example 106] | 7.36
* N#Cc1cccc(-c2c[nH]c3ncnc(N4CCOC(c5ccncn5)C4)c23)c1 (stereo not drawn) [Example 141] | 6.71

###

target: GST-tagged truncated LRRK2 (Homo sapiens (Human), UniProt Q5S007); assay: LRRK2 Lantha Screen kinase assay; details: geometric mean of 2-5 determinations unless otherwise indicated (a: >=6 determinations; b: single determination); read-out: LRRK2 WT IC50
Sequence (Q5S007 970-2527): as the sequence (Q5S007 970-2527 G2019S) above, with S1050G counted along it
pIC50: −log10 of the molar value.
Listing of entries alongside the reported pIC50.
assayEndpoint: pIC50

* C[C@H]1CCCN(c2ncnc3[nH]cc(-c4cccc(C#N)c4)c23)C1 | 7.80
* C[C@H]1CCCN(c2ncnc3[nH]cc(-c4cnc5cc[nH]c5c4)c23)C1 | 7.28
* N#Cc1cccc(-c2c[nH]c3ncnc(N4CCC(F)(CO)CC4)c23)c1 | 7.38
* COc1ccc(C#N)cc1-c1c[nH]c2ncnc(N3CCCC(C)C3)c12 (stereo not drawn) | 7.60
* N#Cc1cccc(-c2c[nH]c3ncnc(N4CCOC(c5cc[nH]n5)C4)c23)c1 (stereo not drawn) [Example 36] | 7.37
* Cc1nc(N2CCOCC2)c2c(-c3cccc(C#N)c3F)c[nH]c2n1 | 7.52
* CC1CCN(c2ncnc3[nH]cc(-c4cccc(C#N)c4)c23)C1 (single isomer, unassigned) [Example 77] | 7.41
* N#Cc1cccc(-c2c[nH]c3ncnc(N4CCOC(c5nccs5)C4)c23)c1 (stereo not drawn) | 7.35
* N#Cc1cccc(-c2c[nH]c3ncnc(N4CCOCC4)c23)n1 | 8.05
* Cc1noc(C2CN(c3ncnc4[nH]cc(-c5cccc(C#N)c5)c34)CCO2)n1 (stereo not drawn) | 7.70
* C[C@H]1CCCN(c2ncnc3[nH]cc(-c4cnc5[nH]ccc5c4)c23)C1 | 7.13
* Cn1cc(-c2c[nH]c3ncnc(N4CCOCC4)c23)nc1C#N | 8.13
* CN1CCC2(CC1)CN(c1ncnc3[nH]cc(-c4cccc(C#N)c4)c13)CCO2 | 7.40
* c1ccc(-c2c[nH]c3ncnc(N4CCCC4)c23)cc1 | 7.15
* N#Cc1cccc(-c2c[nH]c3ncnc(N4CCCC4)c23)c1F | 7.82
* COc1ccc(F)cc1-c1c[nH]c2ncnc(N3CCO[C@@H](C)C3)c12 | 7.72
* Fc1ccc(-c2c[nH]c3ncnc(N4CCOCC4)c23)c(F)c1 | 7.39
* CCC1CN(c2ncnc3[nH]cc(-c4cccc(C#N)c4)c23)CCO1 (stereo not drawn) | 7.21
